B1: Intersectin-2, residues 1129 to 1183; numbered along this chain, Q9NZM3 (parent)
chain: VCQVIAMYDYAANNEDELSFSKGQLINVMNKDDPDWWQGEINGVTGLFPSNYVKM

# Variants of: B1
# method_summary: abundance fitness (aPCA) (normalised: wild type 0, dead -1); higher = more abundant; growth selection in yeast, the domain comes from the species named
# condition_context: Homo sapiens
experimental_endpoint: abundance fitness

>  <sequence_string>
VCQVIAMYDYAANNEDELSFSKGQLINVMNKDDPDWWQGEINGVTGLFPSNGVKM [Y52G]

>  <experimental_endpoint>
abundance fitness

>  <result>
-0.122

$$$$
>  <sequence_string>
VCQVIAMYDYAANNEDELSFSKGQLINVMNKDDPDWWQGEINGVTGLFPSNYVHM [K54H]

>  <experimental_endpoint>
abundance fitness

>  <result>
-0.068

$$$$
>  <sequence_string>
VCQVIARYDYAANNEDELSFSKGQLINVMNKDDPDWWQGEINGVTGLFPSNYVKM [M7R]

>  <experimental_endpoint>
abundance fitness

>  <result>
-0.115

$$$$
>  <sequence_string>
VCQVIAMYDYAANNEDLLSFSKGQLINVMNKDDPDWWQGEINGVTGLFPSNYVKM [E17L]

>  <experimental_endpoint>
abundance fitness

>  <result>
-0.124

$$$$
>  <sequence_string>
LCQVIAMYDYAANNEDELSFSKGQLINVMNKDDPDWWQGEINGVTGLFPSNYVKM [V1L]

>  <experimental_endpoint>
abundance fitness

>  <result>
-0.206

$$$$
>  <sequence_string>
VCQVIAMYDYAANNEDELSFWKGQLINVMNKDDPDWWQGEINGVTGLFPSNYVKM [S21W]

>  <experimental_endpoint>
abundance fitness

>  <result>
-0.125

$$$$
>  <sequence_string>
VCQVIAMYDYAASNEDELSFSKGQLINVMNKDDPDWWQGEINGVTGLFPSNYVKM [N13S]

>  <experimental_endpoint>
abundance fitness

>  <result>
0.014

$$$$
>  <sequence_string>
VCQVIAMYDYAANNEDELSFSKGQLINVMNKDDPDWWQGEINGVTGLFPSNYVPM [K54P]

>  <experimental_endpoint>
abundance fitness

>  <result>
-0.507

$$$$
>  <sequence_string>
VCQVIAMYDYAANNEDELSFSKGQVINVMNKDDPDWWQGEINGVTGLFPSNYVKM [L25V]

>  <experimental_endpoint>
abundance fitness

>  <result>
-0.011

$$$$
>  <sequence_string>
VCQVIAMYDYAINNEDELSFSKGQLINVMNKDDPDWWQGEINGVTGLFPSNYVKM [A12I]

>  <experimental_endpoint>
abundance fitness

>  <result>
-0.469

$$$$
>  <sequence_string>
VCQVIAMYDYAANNEDELSFSKGQTINVMNKDDPDWWQGEINGVTGLFPSNYVKM [L25T]

>  <experimental_endpoint>
abundance fitness

>  <result>
-0.059

$$$$
>  <sequence_string>
VCQVIAMYDYAAWNEDELSFSKGQLINVMNKDDPDWWQGEINGVTGLFPSNYVKM [N13W]

>  <experimental_endpoint>
abundance fitness

>  <result>
-0.306

$$$$
>  <sequence_string>
VCQVIAMYDYAANNEDELSFSKGQLINVMNKDDPDSWQGEINGVTGLFPSNYVKM [W36S]

>  <experimental_endpoint>
abundance fitness

>  <result>
-0.1

$$$$
>  <sequence_string>
VCQVIAMYDYAANNEKELSFSKGQLINVMNKDDPDWWQGEINGVTGLFPSNYVKM [D16K]

>  <experimental_endpoint>
abundance fitness

>  <result>
0.016

$$$$
>  <sequence_string>
VCQVIAMYDYAANNEDELSFSKGQLINVMNKDDPDWWQGEINGVLGLFPSNYVKM [T45L]

>  <experimental_endpoint>
abundance fitness

>  <result>
-0.031

$$$$
>  <sequence_string>
VCQVIAMYDYAANNEDEASFSKGQLINVMNKDDPDWWQGEINGVTGLFPSNYVKM [L18A]

>  <experimental_endpoint>
abundance fitness

>  <result>
-0.715

$$$$
>  <sequence_string>
VCQVIAMYDYAANNEDELSFSKGQLINVMNKDDPDWWQGEINGVTGLFPSNYVGM [K54G]

>  <experimental_endpoint>
abundance fitness

>  <result>
-0.172

$$$$
>  <sequence_string>
VCQVIAMYDYAANNEDELSFSKGQLINVMNKQDPDWWQGEINGVTGLFPSNYVKM [D32Q]

>  <experimental_endpoint>
abundance fitness

>  <result>
0.046

$$$$
>  <sequence_string>
VCQVIAMYDYAANNEDELSFIKGQLINVMNKDDPDWWQGEINGVTGLFPSNYVKM [S21I]

>  <experimental_endpoint>
abundance fitness

>  <result>
-0.045

$$$$
>  <sequence_string>
VCQSIAMYDYAANNEDELSFSKGQLINVMNKDDPDWWQGEINGVTGLFPSNYVKM [V4S]

>  <experimental_endpoint>
abundance fitness

>  <result>
-0.064

$$$$
>  <sequence_string>
VCQVIAMYSYAANNEDELSFSKGQLINVMNKDDPDWWQGEINGVTGLFPSNYVKM [D9S]

>  <experimental_endpoint>
abundance fitness

>  <result>
-0.069

$$$$
>  <sequence_string>
VCQVIAMYDYAANNEDELSFSKGQLINVMNKDDPDWWQGEINGTTGLFPSNYVKM [V44T]

>  <experimental_endpoint>
abundance fitness

>  <result>
-0.052

$$$$
